Tested on: Rhizopus
protocol: Inhibition of Rhizopus sp. amyloglucosidase at 1000 uM
measurement_type: inhibition (%)

// worked examples, inhibition included
CC[C@H]1N[C@@H](CO)[C@@H](O)[C@H](O)[C@H]1O :: 0
CC[C@H]1NC[C@@H](O)[C@@H](O)[C@H](O)[C@H]1O :: 0
CCC[C@@H]1N[C@@H](CO)[C@@H](O)[C@H](O)[C@H]1O :: 0
CC[C@@H]1N[C@@H](CO)[C@@H](O)[C@H](O)[C@H]1O :: 0

I: CC[C@@H]1NC[C@@H](O)[C@@H](O)[C@H](O)[C@H]1O
II: CC[C@@H]1N[C@H](CC)[C@H](O)[C@@H](O)[C@@H]1O
# input Higher inhibition between I and II ? Identify your pick by its label.
# output II
(II: 3.4%, I: 0%)

====

target_or_system: Alpha-galactosidase (Coffea arabica) (UniProt Q42656)
Sequence (Q42656 16-378 limits assumed): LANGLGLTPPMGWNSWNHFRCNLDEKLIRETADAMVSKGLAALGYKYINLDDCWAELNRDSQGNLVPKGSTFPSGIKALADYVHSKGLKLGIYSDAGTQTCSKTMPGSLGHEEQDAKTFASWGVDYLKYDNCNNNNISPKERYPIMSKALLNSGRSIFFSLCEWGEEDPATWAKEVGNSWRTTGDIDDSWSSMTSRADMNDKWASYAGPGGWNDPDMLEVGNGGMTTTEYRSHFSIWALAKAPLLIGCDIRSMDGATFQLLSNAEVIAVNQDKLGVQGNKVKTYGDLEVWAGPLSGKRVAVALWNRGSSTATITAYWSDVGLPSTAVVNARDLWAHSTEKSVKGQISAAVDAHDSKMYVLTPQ
protocol: Inhibition of coffee bean alpha-galactosidase at 1000 uM
measurement_type: inhibition (%)

CCC[C@@H]1NC[C@@H](O)[C@@H](O)[C@H](O)[C@H]1O :: 46

P: CC[C@H]1N[C@@H](CO)[C@@H](O)[C@H](O)[C@H]1O
Q: CC[C@H]1NC[C@@H](O)[C@@H](O)[C@H](O)[C@H]1O
# input Which of the two items, P and Q , has the greater recorded inhibition? Please reply using the label of the selected record.
# output P
(P: 8.7%, Q: 1.2%)
